Target: RELB subunit;p52 subunit (Homo sapiens;Homo sapiens, UniProt Q01201;Q00653 120-401;4-332)
Sequence 1: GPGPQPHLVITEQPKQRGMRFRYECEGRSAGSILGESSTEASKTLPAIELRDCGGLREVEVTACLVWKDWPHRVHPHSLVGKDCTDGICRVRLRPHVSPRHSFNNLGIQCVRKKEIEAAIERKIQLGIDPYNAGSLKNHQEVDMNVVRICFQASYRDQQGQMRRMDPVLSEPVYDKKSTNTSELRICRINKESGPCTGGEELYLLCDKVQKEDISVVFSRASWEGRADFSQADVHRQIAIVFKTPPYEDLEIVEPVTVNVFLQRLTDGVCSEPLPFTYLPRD
Sequence 2: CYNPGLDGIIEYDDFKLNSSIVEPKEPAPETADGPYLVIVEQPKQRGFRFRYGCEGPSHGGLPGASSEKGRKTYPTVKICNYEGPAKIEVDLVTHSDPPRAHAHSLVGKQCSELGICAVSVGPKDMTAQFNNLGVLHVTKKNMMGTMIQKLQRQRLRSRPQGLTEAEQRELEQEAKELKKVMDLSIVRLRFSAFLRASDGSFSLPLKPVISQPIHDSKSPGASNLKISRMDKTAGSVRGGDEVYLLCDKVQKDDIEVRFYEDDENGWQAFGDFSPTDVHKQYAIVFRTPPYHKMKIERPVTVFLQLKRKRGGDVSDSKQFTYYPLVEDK
Experiment: protein binding microarray; high values mean tight binding
Details: dsDNA, one strand shown
binding signal vs -0.1 z-score: at or above is Satisfied, below is Not satisfied.

Worked examples follow.
Sequence chain: GGGATTCTCCC
Test target: RELB subunit;p52 subunit (Homo sapiens;Homo sapiens, UniProt Q01201;Q00653 120-401;4-332)
Group label: Satisfied
//
Sequence chain: AAGGTGTCCCT
Test target: RELB subunit;p52 subunit (Homo sapiens;Homo sapiens, UniProt Q01201;Q00653 120-401;4-332)
Group label: Satisfied
//
Sequence chain: CAGAGATTCCT
Test target: RELB subunit;p52 subunit (Homo sapiens;Homo sapiens, UniProt Q01201;Q00653 120-401;4-332)
Group label: Not satisfied
//
Sequence chain: AAGAATCCCCC
Test target: RELB subunit;p52 subunit (Homo sapiens;Homo sapiens, UniProt Q01201;Q00653 120-401;4-332)
Group label: Satisfied
//
Sequence chain: CGGAAATTCCC
Test target: RELB subunit;p52 subunit (Homo sapiens;Homo sapiens, UniProt Q01201;Q00653 120-401;4-332)
Group label: Satisfied
//
Sequence chain: GAAGGCTCCCT
Test target: RELB subunit;p52 subunit (Homo sapiens;Homo sapiens, UniProt Q01201;Q00653 120-401;4-332)
Group label: Not satisfied

Ask: Tell me whether binding signal is at least -0.1 z-score here: `AGGGATCTCCC`
Reply: Satisfied

Ask: Reported binding signal reaches at least -0.1 z-score for `AAGTATGCCCC` ?
Reply: Satisfied

Ask: Given `CAGTGGCTCCC` , state whether its binding signal is at least -0.1 z-score.
Reply: Not satisfied

###

target: C-Rel subunit;p50 subunit (Homo sapiens;Homo sapiens, UniProt Q04864;P19838 1-285;7-356); test: protein binding microarray; high values mean tight binding; conditions: dsDNA, one strand shown
Sequence (Q04864 1-285, chain 1 of 2): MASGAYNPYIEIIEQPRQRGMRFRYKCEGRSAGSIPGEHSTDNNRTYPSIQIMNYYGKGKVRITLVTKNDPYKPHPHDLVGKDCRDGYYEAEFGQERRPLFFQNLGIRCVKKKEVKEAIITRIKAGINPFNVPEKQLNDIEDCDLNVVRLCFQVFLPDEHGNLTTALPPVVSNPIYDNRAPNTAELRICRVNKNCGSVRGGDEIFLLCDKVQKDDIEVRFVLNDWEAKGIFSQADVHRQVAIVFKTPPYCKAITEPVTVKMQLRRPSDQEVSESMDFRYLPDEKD
Sequence (P19838 7-356, chain 2 of 2): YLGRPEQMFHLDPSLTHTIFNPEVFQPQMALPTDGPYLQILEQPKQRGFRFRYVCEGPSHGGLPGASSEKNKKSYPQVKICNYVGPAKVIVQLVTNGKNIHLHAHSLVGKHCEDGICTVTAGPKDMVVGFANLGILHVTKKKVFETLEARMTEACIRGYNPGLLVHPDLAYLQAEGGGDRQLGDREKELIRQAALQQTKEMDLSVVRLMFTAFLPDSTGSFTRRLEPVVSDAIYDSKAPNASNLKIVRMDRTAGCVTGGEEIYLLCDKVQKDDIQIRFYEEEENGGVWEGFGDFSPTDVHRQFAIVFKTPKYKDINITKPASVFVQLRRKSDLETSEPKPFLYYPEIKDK
Result type: binding signal (z-score)
Kindly answer with a numeric value in z-score, unit omitted.

Ask: Return reported binding signal. Input sequence: `CGGTTTTTCCC`
Reply: 1.57

Ask: Fill in binding signal for record `AAATTGCTCCT`
Reply: -1.33

Ask: Check the records and state binding signal for `AGGTTGCTCCC`
Reply: -0.696

Ask: Look up and report measured binding signal for this entry: `CGAAGGACCCT`
Reply: -1.47

Ask: Give recorded binding signal. `AGAGGTCTCCC`
Reply: -0.507

Ask: Assign binding signal to the following record: `AGAAGGCCCCT`
Reply: -0.139

Ask: Tell me its binding signal given `CGGGATGCCCC` as the entry.
Reply: 0.949

###

Biological target: RELB subunit;p52 subunit (Homo sapiens;Homo sapiens, UniProt Q01201;Q00653 120-401;4-332)
Sequence 1: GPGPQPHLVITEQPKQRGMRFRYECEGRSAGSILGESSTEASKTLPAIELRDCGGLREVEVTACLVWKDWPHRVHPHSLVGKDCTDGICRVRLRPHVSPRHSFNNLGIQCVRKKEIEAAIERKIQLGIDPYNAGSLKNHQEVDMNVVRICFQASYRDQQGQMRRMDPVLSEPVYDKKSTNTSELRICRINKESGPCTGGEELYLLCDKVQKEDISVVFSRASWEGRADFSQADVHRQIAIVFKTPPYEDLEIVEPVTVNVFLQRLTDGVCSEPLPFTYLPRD
Sequence 2: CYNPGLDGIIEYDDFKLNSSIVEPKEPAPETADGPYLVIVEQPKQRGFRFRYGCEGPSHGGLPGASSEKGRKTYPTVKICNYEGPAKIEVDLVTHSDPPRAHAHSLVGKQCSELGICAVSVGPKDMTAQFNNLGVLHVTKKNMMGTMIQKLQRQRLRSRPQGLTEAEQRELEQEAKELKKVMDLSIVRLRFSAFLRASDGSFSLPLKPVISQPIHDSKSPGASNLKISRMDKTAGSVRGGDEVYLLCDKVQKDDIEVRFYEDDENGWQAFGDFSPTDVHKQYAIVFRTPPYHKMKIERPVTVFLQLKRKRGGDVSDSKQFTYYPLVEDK
Assay: protein binding microarray; high values mean tight binding
Details: dsDNA, one strand shown
Result type: binding signal

Ask: Could you please provide reported binding signal for `CGGGGACCCCT` ? Thanks!
Reply: 0.906 z-score

Ask: Complete the entry with binding signal for `CAAGTCACCCC`
Reply: -0.0361 z-score

Ask: Name the recorded binding signal of the item `CGAGAGCCCCT` in your answer.
Reply: 0.576 z-score

Ask: Give a short answer stating reported binding signal for `AAAGTGGTCCC` .
Reply: -0.0596 z-score

Ask: Return value of binding signal for input `AGGAGGATCCT` , no commentary.
Reply: -0.821 z-score

Ask: Indicate its recorded binding signal; the sequence in question is `AGGATCTCCCC`
Reply: 0.999 z-score

Ask: # return recorded binding signal for input `AGGTAAACCCC`
Reply: 1.51 z-score

Ask: Quote binding signal reported for `AGGATGTTCCC` please.
Reply: -0.342 z-score

Ask: Please give measured binding signal of the following entry: `AAGATTTCCCC`
Reply: 2.17 z-score

Ask: Give the measured binding signal for `AAGATAATCCT`
Reply: -0.91 z-score

Ask: Indicate the recorded binding signal value for this sequence: `GAGAGTATCCC`
Reply: -0.687 z-score

Ask: Tell us which binding signal value is on record for `AGGAGTGTCCC`
Reply: 0.321 z-score

Ask: Please indicate binding signal recorded for `AGGTAATTCCT`
Reply: 0.553 z-score

Ask: Tell me binding signal reported for `GAATTATTCCC`
Reply: 0.413 z-score

Ask: Query binding signal for `GGATAATCCCC`
Reply: 1.9 z-score

Ask: Give the value of binding signal reported for the following: `GGAGGGTCCCT`
Reply: 0.448 z-score

Ask: Complete the entry with binding signal for `CGGTTCATCCT`
Reply: -0.765 z-score

Ask: Recall and state the measured binding signal for `GAAAGTGTCCT` .
Reply: -0.525 z-score

Ask: Quick one: give measured binding signal for `GAAATCCTCCT`
Reply: -0.866 z-score

Ask: Report measured binding signal; entry is `GAGAGATTCCC`
Reply: 0.292 z-score

Ask: Note down binding signal recorded for `CAGTTACCCCC`
Reply: 1.4 z-score

Ask: Please indicate binding signal recorded for `CGGATGGTCCC`
Reply: -0.117 z-score

###

target: RELA (p65) subunit of heterodimer;p50 subunit (Homo sapiens;Homo sapiens, UniProt Q04206;P19838 1-307;7-356); assay: protein binding microarray; high values mean tight binding; conditions: dsDNA, one strand shown
Sequence (Q04206 1-307, chain 1 of 2): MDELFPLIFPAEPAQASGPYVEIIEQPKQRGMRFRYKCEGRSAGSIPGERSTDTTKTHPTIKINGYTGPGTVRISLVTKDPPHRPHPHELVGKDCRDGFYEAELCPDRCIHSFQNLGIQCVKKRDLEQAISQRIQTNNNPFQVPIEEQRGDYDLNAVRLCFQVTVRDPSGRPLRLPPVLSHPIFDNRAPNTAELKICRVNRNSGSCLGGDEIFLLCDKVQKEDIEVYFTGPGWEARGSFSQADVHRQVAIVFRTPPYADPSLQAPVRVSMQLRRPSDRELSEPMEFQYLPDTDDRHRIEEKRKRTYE
Sequence (P19838 7-356, chain 2 of 2): as the sequence (P19838 7-356, chain 2 of 2) above
Result type: binding signal (z-score)
State the answer as a number, implicitly in z-score.

Sequence chain: AAATTGTCCCT
binding signal, z-score: 1.28
//
Sequence chain: AGGTGATTCCC
binding signal, z-score: 1.59
//
Sequence chain: GGGTGAATCCT
binding signal, z-score: -0.186
//
Sequence chain: CAGAGACCCCC
binding signal, z-score: 0.407
//
Sequence chain: CGGGTATCCCC
binding signal, z-score: 1.84
//
Sequence chain: AAGAAATTCCC
binding signal, z-score: 1.53
//
Sequence chain: CGATGTACCCC
binding signal, z-score: -0.125
//
Sequence chain: CGATGGGCCCT
binding signal, z-score: -0.968

Ask: Using the record for `GGGTATATCCC` , state its measured binding signal.
Reply: 0.931

Ask: Quick one: give measured binding signal for `AAGTTTCCCCT`
Reply: 2.47
